All figures here come from ChEMBL document CHEMBL4002643.

Tested on: UO-31
Assay: Cytotoxicity against human UO31 cells assessed as growth inhibition after 48 hrs by SRB assay
Type: functional
Conditions: UO-31, 48 h
In this section we review reported GI50 values for a set of compounds.
Reply numerically in µM, unit not repeated.

Look over these answered cases.
COc1cc2c(c(OC)c1OC)-c1cc3c(cc1COC2)OCO3 ... 3.98
COc1ccc2c(c1O)COCc1cc(OC)c(OC)c(OC)c1-2 ... 14.5
COc1ccc2c(c1OP(=O)([O-])[O-])COCc1cc(OC)c(OC)c(OC)c1-2.[Na+].[Na+] ... 19.5

QUERY: Annotate the compound `COc1ccc2c(c1)COCc1cc(OC)c(OC)c(OC)c1-2` with its measured GI50.
RESULT: 15.1

---

In this section we review reported GI50 values for a set of molecules.
Test system: SR
Assay: Cytotoxicity against human SR cells assessed as growth inhibition after 48 hrs by SRB assay
Type: functional

Look over these answered cases.
COc1cc2c(c(OC)c1OC)-c1cc3c(cc1COC2)OCO3 ... 170 nM
COc1ccc2c(c1)COCc1cc(OC)c(OC)c(OC)c1-2 ... 40 nM
COc1ccc2c(c1OP(=O)([O-])[O-])COCc1cc(OC)c(OC)c(OC)c1-2.[Na+].[Na+] ... 190 nM

Consider the record given below.
QUERY: Annotate the molecule `COc1ccc2c(c1O)COCc1cc(OC)c(OC)c(OC)c1-2` with its measured GI50.
RESULT: 40 nM

---

Tested on: COLO 205
Assay: Cytotoxicity against human COLO205 cells assessed as growth inhibition after 48 hrs by SRB assay
Format: functional
Conditions: COLO 205, 48 h
observation.type: GI50 (nM)
Reply numerically in nM, unit not repeated.

Look over these answered cases.
COc1ccc2c(c1)COCc1cc(OC)c(OC)c(OC)c1-2 ... 110
COc1ccc2c(c1O)COCc1cc(OC)c(OC)c(OC)c1-2 ... 500
COc1cc2c(c(OC)c1OC)-c1cc3c(cc1COC2)OCO3 ... 340

QUERY: Annotate the compound `COc1ccc2c(c1OP(=O)([O-])[O-])COCc1cc(OC)c(OC)c(OC)c1-2.[Na+].[Na+]` with its measured GI50.
RESULT: 620

---

Tested on: SNB-19
Assay: Cytotoxicity against human SNB19 cells assessed as growth inhibition after 48 hrs by SRB assay
Assay type: functional
Conditions: SNB-19, 48 h
In this section we review reported GI50 values for a set of compounds.
Please state the value followed by its unit.

Look over these answered cases.
COc1ccc2c(c1O)COCc1cc(OC)c(OC)c(OC)c1-2 ... 140 nM
COc1cc2c(c(OC)c1OC)-c1cc3c(cc1COC2)OCO3 ... 680 nM
COc1ccc2c(c1OP(=O)([O-])[O-])COCc1cc(OC)c(OC)c(OC)c1-2.[Na+].[Na+] ... 510 nM

Consider the record given below.
QUERY: Annotate the compound `COc1ccc2c(c1)COCc1cc(OC)c(OC)c(OC)c1-2` with its measured GI50.
RESULT: 980 nM

---

In this section we review reported GI50 values for a set of compounds.
Test system: LOX IMVI
Assay: Cytotoxicity against human LOXIMVI cells assessed as growth inhibition after 48 hrs by SRB assay
Format: functional
Please state the value followed by its unit.

COc1ccc2c(c1OP(=O)([O-])[O-])COCc1cc(OC)c(OC)c(OC)c1-2.[Na+].[Na+] ... 660 nM
COc1ccc2c(c1O)COCc1cc(OC)c(OC)c(OC)c1-2 ... 80 nM
COc1cc2c(c(OC)c1OC)-c1cc3c(cc1COC2)OCO3 ... 870 nM

Consider the record given below.
QUERY: Annotate the compound `COc1ccc2c(c1)COCc1cc(OC)c(OC)c(OC)c1-2` with its measured GI50.
RESULT: 210 nM

---

System: M14
Test: Cytotoxicity against human M14 cells assessed as growth inhibition after 48 hrs by SRB assay
Format: functional
Settings: M14, 48 h
In this section we review reported GI50 values for a set of compounds.
Reply numerically in nM, unit not repeated.

COc1cc2c(c(OC)c1OC)-c1cc3c(cc1COC2)OCO3 ... 230
COc1ccc2c(c1OP(=O)([O-])[O-])COCc1cc(OC)c(OC)c(OC)c1-2.[Na+].[Na+] ... 270
COc1ccc2c(c1O)COCc1cc(OC)c(OC)c(OC)c1-2 ... 50

QUERY: Annotate the compound `COc1ccc2c(c1)COCc1cc(OC)c(OC)c(OC)c1-2` with its measured GI50.
RESULT: 50

---

Tested on: HCT-15
Experiment: Cytotoxicity against human HCT15 cells assessed as growth inhibition after 48 hrs by SRB assay
Assay type: functional
Settings: HCT-15, 48 h
In this section we review reported GI50 values for a set of molecules.

Look over these answered cases.
COc1ccc2c(c1OP(=O)([O-])[O-])COCc1cc(OC)c(OC)c(OC)c1-2.[Na+].[Na+] ... 440 nM
COc1cc2c(c(OC)c1OC)-c1cc3c(cc1COC2)OCO3 ... 480 nM
COc1ccc2c(c1)COCc1cc(OC)c(OC)c(OC)c1-2 ... 80 nM

Consider the record given below.
QUERY: Annotate the molecule `COc1ccc2c(c1O)COCc1cc(OC)c(OC)c(OC)c1-2` with its measured GI50.
RESULT: 80 nM

---

System: KM12
Test: Cytotoxicity against human KM12 cells assessed as growth inhibition after 48 hrs by SRB assay
Type: functional
Settings: KM12, 48 h
observation.type: GI50 (nM)
Reply numerically in nM, unit not repeated.

Look over these answered cases.
COc1ccc2c(c1)COCc1cc(OC)c(OC)c(OC)c1-2 ... 50
COc1ccc2c(c1OP(=O)([O-])[O-])COCc1cc(OC)c(OC)c(OC)c1-2.[Na+].[Na+] ... 300

QUERY: Annotate the compound `COc1cc2c(c(OC)c1OC)-c1cc3c(cc1COC2)OCO3` with its measured GI50.
RESULT: 360

---

In this section we review reported GI50 values for a set of molecules.
Tested on: SF-295
Test: Cytotoxicity against human SF295 cells assessed as growth inhibition after 48 hrs by SRB assay
Assay type: functional
Settings: SF-295, 48 h
Reply numerically in nM, unit not repeated.

QUERY: Annotate the molecule `COc1ccc2c(c1OP(=O)([O-])[O-])COCc1cc(OC)c(OC)c(OC)c1-2.[Na+].[Na+]` with its measured GI50.
RESULT: 320

QUERY: Annotate the molecule `COc1ccc2c(c1)COCc1cc(OC)c(OC)c(OC)c1-2` with its measured GI50.
RESULT: 60

QUERY: Annotate the molecule `COc1cc2c(c(OC)c1OC)-c1cc3c(cc1COC2)OCO3` with its measured GI50.
RESULT: 330
